# experimentalTarget: Gal(b1-4)GlcNAc(b1-2)Man(a1-6)Man(b1-4)GlcNAc(b1-4)GlcNAc
# protocol: glycan array binding signal (z-score within array); higher = stronger binding
# experimentalParameters: glycan notation: IUPAC condensed, linker removed
Shown is part of a subset that was picked to be rich in the strongest signals.
Class satisfied: glycan array binding signal (z-score) at least -0.2. Class not satisfied: glycan array binding signal (z-score) below -0.2.

1. ArathEULS3 (Arabidopsis thaliana), Q945P1 (protein) MEHHHQHHRHHQRDDGEDDRQSFGVPPPHVDAPPQPHGLYQSQPHFDPYAPTPQAPAPYRSETQFEPHAPPPYRSEPYFETPAPPPSFGHVSHVGHQSPNESYPPEHHRYGGYQQPSNSLLESHGDHSGVTHVAHHSSNQPQSSSGVYHKPDENRLPDNLAGLAGRATVKVYSKAEPNYNLTIRDGKVILAPADPSDEAQHWYKDEKYSTKVKDADGHPCFALVNKATGEAMKHSVGATHPVHLIRYVPDKLDESVLWTESKDFGDGYRTIRMVNNTRLNVDAYHGDSKSGGVRDGTTIVLWDWNKGDNQLWKIFPFILEQKLISEEDLNSAVDHHHHHH : satisfied
2. AAA (Anguilla anguilla), Q7SIC1 (protein) VIPEGYTQENVAVRGKATQSAQLRGEHAANSEASNAIDGNRDSNFYHGSCTHSSGQANPWWRVDLLQVYTITSVTITNRGDCCGERISGAEINIGQHLASNGVNNPECSVIGSMATGETKTFHCPAPMIGRYVVTYLPTSESLHLCEVEVNVDKPAAA : satisfied
3. EUL D1A first (Oryza sativa) (protein) MFGFGHHHNQAPAAPSDPNQIFKIFCRANENYCLTVRDSAVVLAPVNPKDEHQHWFKDMRFSTKVKDGEGMPAFALVNKATGLAVKHSLGQSHPVKLVPFNPEYEDASVLWTESKDVGKGFRCIRMVNNTRLNLDAFHGDKDHGGVRDGTTVVLWEWCKGDNQSWKILPWGPEAHSSSPGAATILEQKLISEEDLNSAVDHHHHHH : satisfied
4. Layilin (Mus musculus), Q8C351 (protein) MQPGAALQAMLLAVLLAKPRDSKGRLLSASDLDPRGGQLVCRGGTRRPCYKVIYFHDAFQRLNFEEAKETCMEDGGQLVSIETEDEQRLIEKFIENLLASDGDFWIGLKRLEEKQSNNTACQDLYAWTDGSTSQFRNWYVDEPSCGSEVCVVMYHQPSAPPGIGGSYMFQWNDDRCNMKNNFICKYHDDKPSTTPSIWPGGEATEPATPLLPEETQKEDTKETFKERREAALNLAYILIPSIPLFLLLVVTSAVCWVWICRRKREQTDPSTKEQHTIWPTPRQENSPNLDVYNVIRKQSEADLAEPRPDLKNISFRVCSGEAMPDDMSCDYENIAVNPSESGFVTLASMESGFVTNDIYEFSPDRMGRSKESGWVENEIYY : not satisfied
5. AAL (Agrocybe aegerita), Q6WY08 (protein) MQGVNIYNISAGTSVDLAAPVTTGDIVTFFSSALNLNAGAGNPNNTTLNLFAENGAYLLHIAFRLQENVIIFNSRQPDGPWLVEQRVSDVANQFAGIDGKAMVTVFDHGDKYQVVINEKTVIQYTKQISGLTLSLSYNATEETSIFSTVVEAVTYTGLALEHHHHHH : satisfied
6. SP16663B-bot-321-25-321 (Bacteroides ovatus) (protein) DDDDEVTMNSKFYLSTKVFPVDSYEASLSVILKDNSVVVNELQPNYRFVACATERLSKDVKITADSDDNLVSAYNKANDTEYNILPAENYSFTNKTVTIENGESVSGDSIKIELLNVGSLTTEGGYLLPVTISSIEGNNLDALSSNRGVVYLKIQNIHVNVESGQPAEGTLIADRSGWTVKVAPTTRGDAKNLIDGTNSDVARDGGAEYWLTVDIGKVQTLTGIRNKCYASSYSPTAVEVFTSSDGAKWKSIGAVTISKSGTQYIKFSKAVETRYLKYYVKQGPNTVSLTEFDLYAK : not satisfied
7. SP15308F-bth-333-19-333 (Bacteroides thetaiotaomicron) (protein) SCNNEWESEQYVQMVSFKAPVNAQGVTPIYIRYKPEGKVTYQLPLIVSGSTMNSKDLNVHVGLDLDTLDVLNVEHFGSRKELFFKPLENKYYEFPETVQIPAGECTSLLPIDFALKDLDQVDKWVLPLAIQSNDPSHNYQANPRKFYRRAMLRISPFNDYSGQYSATAYKVYFKGNEKEAIVPEYHTSYVIDDKTIFFYAGLIDIDRLDRKYYKIKFEFTEEKIDLQTRKLKISSDNEDINLVVKGQPSYTVEEEMDATRPYLKHIYVTINNLEYEFTDYTSVPGYPLEYVVKGSLTMERKINTQIPDEDQAIEW : not satisfied
8. RVL (Remusatia vivipara), B5LYJ9 (protein) MAKLLLFLLPAILGLLVPRSAVALGTNYLLSGQTLDTEGHLKNGDFDLVMQDDCNLVLYNGNWQSNTANNGRDCKLTLTDYGELVIKNGDGSTVWKSGAQSVKGNYAAVVHPDGRLVVLGPSVFKIDPWVRGLNSLRFRNIPFTNNLLFSGQVLYGDGRLTAKNHQLVMQGDCNLVLYGGKYGWQSNTHGNGEHCFLRLNHKGELIIKDDDFKTIWSSRSSSKQGEYVLILQDDGFGVIYGPAIFETSSKRSIAAS : satisfied
